System: RPMI-8226 leukemia
Assay: NCI tumour cell line growth inhibition, 48 h; in the data active means GI50 below about 0.43 µM; inactive means the rest
Result category, one only: TRUE for active, FALSE for inactive

Solved cases (2 shown):
C[C@H]1CCC/C=C/[C@@H]2C[C@H](O)C[C@H]2[C@H](O)C(O)C(O)C(=O)O1 (stereo partly drawn) ... FALSE
CCc1n(Cc2ccc3ccccc3c2)cc[n+]1Cc1ccc2ccccc2c1 ... TRUE

Kindly consider the entry below.
Query: Which result was noted for this compound in the test: CCOC(=O)c1c(C)n(Cc2ccc(Cl)cc2Cl)c2c1cc(O)c1[nH]c(Cc3ccccc3)nc12
Reply: FALSE

====

Property: TGI; scope: individual molecules
Tested on: CCRF-CEM leukemia
Assay: NCI tumour cell line growth inhibition, 48 h

The cases that follow already have their TGI on record.
CC1(c2cccc(C(F)(F)F)c2)CC(c2cccc(C(F)(F)F)c2)=C(C#N)C(=C(C#N)C#N)N1 (stereo unspecified) ... 24.1 µM
CC1(C)CCOC(Sc2ccccc2)C1 (stereo unspecified) ... > 100 µM
O=c1oc2cc(O)ccc2cc1-c1nc2ccccc2o1 ... > 100 µM
C=C(Cl)C(Cl)(CBr)CCCC(C)C (stereo unspecified) ... > 100 µM
CCc1cn(C2CC(CO)C(CO)S2)c(=O)[nH]c1=O (stereo unspecified) ... > 100 µM

Continue with the molecule presented below.
Query: Entry CN(C)c1ccc(-c2nc(N)nc3c2CCCC3)cc1 : reported TGI = ?
Reply: > 100 µM
